Taken from patent US10053431B2.

For each of the molecules below, state its pIC50.
target_or_test_system: BIR3 domain of XIAP (Homo sapiens (Human))
Sequence (P98170 241-356 with tags or gaps limits assumed): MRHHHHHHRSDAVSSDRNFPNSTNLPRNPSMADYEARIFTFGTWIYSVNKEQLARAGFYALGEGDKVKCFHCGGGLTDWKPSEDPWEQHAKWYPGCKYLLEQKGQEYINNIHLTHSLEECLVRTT
assay: TR-FRET assay for BIR3 (inhibition of binding of XIAP BIR3 domain to SMAC-derived Peptide A)
applied_conditions: 6x His-tagged BIR3 domain (aa 241-356 of XIAP) 10 nM, Peptide A 20 nM, TR-FRET
Structures can show the parent of a compound that is named as a salt.
Give bare numbers, as −log10 of the molar value.

CN[C@@H](C)C(=O)N[C@H]1CN(C(=O)C2CCOCC2)c2cc(C#N)ccc2N(Cc2c(C3CC3)cnc3ccccc23)C1=O: 4.78
CN[C@@H](C)C(=O)N[C@H]1CN(C(=O)c2ccc(NC(C)=O)cc2)c2ccccc2N(Cc2c(OC)ccc3cc(Br)ccc23)C1=O [Example 76d]: 4.48
CN[C@@H](C)C(=O)N[C@H]1CN(C(=O)c2ccc(C#N)cc2)c2cc(Cl)ccc2N(Cc2c(OCC(F)(F)F)ccc3cc(Br)ccc23)C1=O [Example 135, hydrochloride]: 4.44

Q. pIC50 for CN[C@@H](C)C(=O)N[C@H]1CN(S(=O)(=O)c2ccc([N+](=O)[O-])cc2)c2ccccc2N(Cc2c(C)ccc3ccccc23)C1=O [Example 98d] ?
A. 4.54

---

For each of the compounds below, state its log10 IC50.
target_or_test_system: BIR2 domain of XIAP (Homo sapiens (Human), UniProt P98170, C202A/C213G)
Sequence (P98170 124-240 with tags or gaps C202A/C213G limits assumed): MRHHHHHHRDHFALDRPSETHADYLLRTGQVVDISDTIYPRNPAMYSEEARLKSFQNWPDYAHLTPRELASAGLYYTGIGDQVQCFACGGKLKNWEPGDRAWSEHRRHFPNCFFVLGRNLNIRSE
assay: TR-FRET assay for BIR2 (inhibition of binding of XIAP BIR2 domain to SMAC-derived Peptide A)
applied_conditions: 6x His-tagged BIR2 domain (aa 124-240 of XIAP) 10 nM, Peptide A 20 nM, TR-FRET; read-out: IC50 BIR2
Where a name gives a salt, the structure may show the parent alone.
Annotation: log10 of IC50, nM basis.

Use these answered entries as a reference point.
CN[C@@H](C)C(=O)N[C@H]1CN(C(=O)c2ccc(S(C)(=O)=O)cc2)c2ccccc2N(Cc2c(C)ccc3ccccc23)C1=O [Example 13c]: 2.08
CN[C@@H](C)C(=O)N[C@H]1CN(Cc2ccc(C#N)cc2)c2ccccc2N(Cc2c(OC)ccc3cc(Br)ccc23)C1=O [Example 78, trifluoroacetate]: 1.48
CN[C@@H](C)C(=O)N[C@H]1CN(C(=O)COCCOCCOC)c2ccccc2N(Cc2c(C)ccc3ccccc23)C1=O [Example 13, hydrochloride]: 2.37
CC[C@H](NCCO)C(=O)NC1C(=O)N(Cc2c(OC)ccc3c(Br)cccc23)c2ccccc2N(c2ccccc2)C1=O (stereo partly drawn): 1.84
CN[C@@H](C)C(=O)N[C@H]1CN(C(=O)C2CCOCC2)c2cc(C#N)ccc2N(Cc2nn(-c3ccccc3C#N)c3ccccc23)C1=O [Example 170, hydrochloride]: 1.41
CN[C@@H](C)C(=O)N[C@H]1CN(C(=O)CS(C)(=O)=O)c2ccccc2N(Cc2c(OC)ccc3ccccc23)C1=O [Example 82, hydrochloride]: 1.46
CN[C@@H](C)C(=O)N[C@H]1CN(C(=O)CCCN)c2ccccc2N(Cc2c(OC)ccc3cc(C(=O)OC)ccc23)C1=O [Example 49, hydrochloride]: 2.10
CN[C@@H](C)C(=O)N[C@H]1CN(C(=O)c2ccc(C#N)cc2)c2ccccc2N(Cc2c(C)ccc3ccccc23)C1=O [Example 96d]: 1.66

Quick one: give me log10 IC50 for each item below, same order please.
1. CN[C@@H](C)C(=O)N[C@H]1CN(C(=O)c2ccc(C(=O)C(C)(C)C)cc2)c2ccccc2N(Cc2c(OC)ccc3cc(Br)ccc23)C1=O [Example 13j]
2. CN[C@@H](C)C(=O)N[C@H]1CN(C(C)=O)c2cc(C#N)ccc2N(Cc2nn(-c3ccccc3C#N)c3ccccc23)C1=O [Example 169, hydrochloride]
3. CN[C@@H](C)C(=O)N[C@H]1CN(C(=O)OC)c2ccccc2N(Cc2c(C)ccc3ccccc23)C1=O [Example 20, hydrochloride]
4. CN[C@@H](C)C(=O)N[C@H]1CN(S(=O)(=O)CS(C)(=O)=O)c2ccccc2N(Cc2c(C)ccc3ccccc23)C1=O [Example 18, trifluoroacetate]

A.
1: 1.57; 2: 1.52; 3: 2.77; 4: 2.77
